Recorded values, source paper PMC5732839.

STUDY SYSTEM: NMT1 (Homo sapiens)
Sequence (P30419 109-496): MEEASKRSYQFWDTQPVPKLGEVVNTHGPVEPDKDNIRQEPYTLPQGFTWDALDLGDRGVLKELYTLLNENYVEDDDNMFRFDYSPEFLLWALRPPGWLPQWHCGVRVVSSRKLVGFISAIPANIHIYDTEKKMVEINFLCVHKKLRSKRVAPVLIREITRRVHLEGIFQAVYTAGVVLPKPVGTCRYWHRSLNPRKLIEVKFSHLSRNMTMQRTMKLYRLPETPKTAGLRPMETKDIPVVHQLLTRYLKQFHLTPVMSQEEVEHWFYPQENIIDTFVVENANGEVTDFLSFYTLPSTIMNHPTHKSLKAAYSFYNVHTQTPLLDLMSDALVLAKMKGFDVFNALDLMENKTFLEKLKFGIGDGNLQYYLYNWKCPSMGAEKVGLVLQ
QUANTITY MEASURED: pIC50
The quantity pIC50 is defined as the negative base-10 logarithm of the molar concentration.

Form: compound = CCCCCCCCCCCCCC(=O)N[C@H](CO)[C@H](O)c1ccc([N+](=O)[O-])cc1 [B13] ; pIC50 = 4.11
